Taken from ChEMBL document CHEMBL3865799.

Assay: Cytotoxicity against human MIAPaCa2 cells assessed as cell growth inhibition at 0.5 uM after 48 hrs by MTT assay
Assay type: functional
Conditions: MIA PaCa-2, 48 h, read-out: GI
recorded-endpoint: inhibition of growth at 0.5 µM (%)
// note: answer is a bare numeric in %

Examples with their reported inhibition of growth at 0.5 µM follow.
cpd-smiles | quantitative-readout
C[C@H]1[C@@H](OCCOc2ccc(/C=C/C(=O)c3ccco3)cc2)O[C@@H]2O[C@@]3(C)CC[C@H]4[C@H](C)CC[C@@H]1[C@@]24OO3 | 18.4
COc1cc(/C=C/C(=O)c2ccc(OCCO[C@H]3O[C@@H]4O[C@@]5(C)CC[C@H]6[C@H](C)CC[C@@H]([C@H]3C)[C@@]46OO5)cc2)cc(OC)c1OCCO[C@H]1O[C@@H]2O[C@@]3(C)CC[C@H]4[C@H](C)CC[C@@H]([C@H]1C)[C@@]24OO3 | 37.3
C[C@H]1[C@@H](OCCOc2ccc(/C=C/C(=O)c3ccc(O)cc3)cc2)O[C@@H]2O[C@@]3(C)CC[C@H]4[C@H](C)CC[C@@H]1[C@@]24OO3 | 6.2

Shift focus to the following entry.
Data request: Give its inhibition of growth at 0.5 µM value. Item: C[C@H]1[C@@H](OCCOc2cccc(C(=O)/C=C/c3ccc(O)cc3)c2)O[C@@H]2O[C@@]3(C)CC[C@H]4[C@H](C)CC[C@@H]1[C@@]24OO3
Data returned: 12.7

----------
Known inhibition of growth at 30 µM of a selection of compounds
Assay: Cytotoxicity against human HepG2 cells assessed as cell growth inhibition at 30 uM after 48 hrs by MTT assay
Assay type: functional
Conditions: HepG2, 48 h, read-out: GI
Use % as the unit, but write only the number.

The cases that follow already have their inhibition of growth at 30 µM on record.
compound | inhibition of growth at 30 µM, %
C[C@H]1[C@@H](OCCOc2ccc(C(=O)/C=C/c3c[nH]c4ccccc34)cc2)O[C@@H]2O[C@@]3(C)CC[C@H]4[C@H](C)CC[C@@H]1[C@@]24OO3 | 21.2
COc1cc(/C=C/C(=O)c2ccc(OCCO[C@H]3O[C@@H]4O[C@@]5(C)CC[C@H]6[C@H](C)CC[C@@H]([C@H]3C)[C@@]46OO5)cc2)cc(OC)c1OCCO[C@H]1O[C@@H]2O[C@@]3(C)CC[C@H]4[C@H](C)CC[C@@H]([C@H]1C)[C@@]24OO3 | 32.9

Data request: Consider the compound shown here: C[C@@H]1CC[C@H]2[C@@H](C)C(=O)O[C@@H]3O[C@@]4(C)CC[C@@H]1[C@]32OO4 [ARTEMISININ] What is its recorded inhibition of growth at 30 µM?
Data returned: 10.5

Data request: Entry under review: C[C@H]1[C@@H](OCCOc2cccc(C(=O)/C=C/c3cn(CCO[C@H]4O[C@@H]5O[C@@]6(C)CC[C@H]7[C@H](C)CC[C@@H]([C@H]4C)[C@@]57OO6)c4ccccc34)c2)O[C@@H]2O[C@@]3(C)CC[C@H]4[C@H](C)CC[C@@H]1[C@@]24OO3 . Reported inhibition of growth at 30 µM?
Data returned: 25.4

----------
Test: Cytotoxicity against human MIAPaCa2 cells assessed as cell growth inhibition at 30 uM after 48 hrs by MTT assay
Assay type: functional
Conditions: MIA PaCa-2, 48 h, read-out: GI
recorded-endpoint: inhibition of growth at 30 µM (%)
Expressed in %, but write only the number.

cpd-smiles | inhibition of growth at 30 µM / %
C[C@H]1[C@@H](OCCOc2ccc(C(=O)/C=C/c3c[nH]c4ccccc34)cc2)O[C@@H]2O[C@@]3(C)CC[C@H]4[C@H](C)CC[C@@H]1[C@@]24OO3 | 49.1
C[C@H]1[C@@H](O)O[C@@H]2O[C@@]3(C)CC[C@H]4[C@H](C)CC[C@@H]1[C@@]24OO3 | 58
C[C@@H]1CC[C@H]2[C@@H](C)C(=O)O[C@@H]3O[C@@]4(C)CC[C@@H]1[C@]32OO4 | 13
C[C@H]1[C@@H](OCCOc2ccc(/C=C/C(=O)c3cccc(O)c3)cc2)O[C@@H]2O[C@@]3(C)CC[C@H]4[C@H](C)CC[C@@H]1[C@@]24OO3 | 44.1
C[C@H]1[C@@H](OCCOc2ccc(/C=C/C(=O)c3ccc(Cl)s3)cc2)O[C@@H]2O[C@@]3(C)CC[C@H]4[C@H](C)CC[C@@H]1[C@@]24OO3 | 53.2

Alright, here's another molecule for you.
Data request: Would you kindly share the measured inhibition of growth at 30 µM for COc1ccc(C(=O)/C=C/c2ccc(OCCO[C@H]3O[C@@H]4O[C@@]5(C)CC[C@H]6[C@H](C)CC[C@@H]([C@H]3C)[C@@]46OO5)cc2)c(OC)c1 ?
Data returned: 44.1

----------
Readings of solubility for the listed molecules
Assay: Aqueous solubility of the compound at pH 7
Assay type: physicochemical

// known answers, use as guide
cpd-smiles | solubility
C[C@H]1[C@@H](OCCOc2ccc(-c3cc(=O)c4ccc(OCCO[C@H]5O[C@H]6O[C@@]7(C)CC[C@H]8[C@H](C)CC[C@@H]([C@H]5C)[C@@]68OO7)cc4o3)cc2)O[C@H]2O[C@@]3(C)CC[C@H]4[C@H](C)CC[C@@H]1[C@@]24OO3 | < 10 µg/mL
C[C@H]1[C@@H](OCCOc2cccc(C(=O)/C=C/c3ccc(O)cc3)c2)O[C@@H]2O[C@@]3(C)CC[C@H]4[C@H](C)CC[C@@H]1[C@@]24OO3 | > 100 µg/mL
C[C@H]1[C@@H](OCCOc2ccc(/C=C/C(=O)c3cccc(O)c3)cc2)O[C@@H]2O[C@@]3(C)CC[C@H]4[C@H](C)CC[C@@H]1[C@@]24OO3 | < 10 µg/mL
COc1ccc(/C=C/C(=O)c2ccc(OCCO[C@H]3O[C@@H]4O[C@@]5(C)CC[C@H]6[C@H](C)CC[C@@H]([C@H]3C)[C@@]46OO5)cc2)c(OC)c1 | < 10 µg/mL

Okay, next one:
Data request: I have this molecule here, C[C@H]1[C@@H](OCCOc2ccc(C(=O)/C=C/c3c[nH]c4ccccc34)cc2)O[C@@H]2O[C@@]3(C)CC[C@H]4[C@H](C)CC[C@@H]1[C@@]24OO3 , and I need its recorded solubility.
Data returned: < 10 µg/mL

----------
Assay: Cytotoxicity against human PC3 cells assessed as cell growth inhibition at 30 uM after 48 hrs by MTT assay
Assay type: functional
Conditions: PC-3, 48 h, read-out: GI
recorded-endpoint: inhibition of growth at 30 µM

cpd-smiles | result
C[C@H]1[C@@H](OCCOc2ccc(/C=C/C(=O)c3ccco3)cc2)O[C@@H]2O[C@@]3(C)CC[C@H]4[C@H](C)CC[C@@H]1[C@@]24OO3 | 55.1 to 58.1%
C[C@H]1[C@@H](OCCOc2ccc(/C=C/C(=O)c3ccc(Cl)cc3)cc2)O[C@@H]2O[C@@]3(C)CC[C@H]4[C@H](C)CC[C@@H]1[C@@]24OO3 | 38.7%
C[C@H]1[C@@H](OCCOc2cccc(C(=O)/C=C/c3cn(CCO[C@H]4O[C@@H]5O[C@@]6(C)CC[C@H]7[C@H](C)CC[C@@H]([C@H]4C)[C@@]57OO6)c4ccccc34)c2)O[C@@H]2O[C@@]3(C)CC[C@H]4[C@H](C)CC[C@@H]1[C@@]24OO3 | 46.3%

Consider the additional compound presented here.
Data request: I am curious: what inhibition of growth at 30 µM value has been reported for C[C@H]1[C@@H](OCCOc2ccc(-c3cc(=O)c4ccc(OCCO[C@H]5O[C@H]6O[C@@]7(C)CC[C@H]8[C@H](C)CC[C@@H]([C@H]5C)[C@@]68OO7)cc4o3)cc2)O[C@H]2O[C@@]3(C)CC[C@H]4[C@H](C)CC[C@@H]1[C@@]24OO3 ?
Data returned: 40.6%

----------
Test: Cytotoxicity against human MIAPaCa2 cells assessed as cell growth inhibition at 30 uM after 48 hrs by MTT assay
Format: functional
Conditions: MIA PaCa-2, 48 h, read-out: GI
// N strictly below 50% in inhibition of growth at 30 µM; Y otherwise

Worked set:
cpd-smiles | class-assignment
C[C@H]1[C@@H](OCCOc2ccc(-c3cc(=O)c4ccc(OCCO[C@H]5O[C@H]6O[C@@]7(C)CC[C@H]8[C@H](C)CC[C@@H]([C@H]5C)[C@@]68OO7)cc4o3)cc2)O[C@H]2O[C@@]3(C)CC[C@H]4[C@H](C)CC[C@@H]1[C@@]24OO3 | N
C[C@H]1[C@@H](OCCOc2cccc(C(=O)/C=C/c3cn(CCO[C@H]4O[C@@H]5O[C@@]6(C)CC[C@H]7[C@H](C)CC[C@@H]([C@H]4C)[C@@]57OO6)c4ccccc34)c2)O[C@@H]2O[C@@]3(C)CC[C@H]4[C@H](C)CC[C@@H]1[C@@]24OO3 | N
C[C@H]1[C@@H](OCCOc2ccc(/C=C/C(=O)c3cc4ccccc4o3)cc2)O[C@@H]2O[C@@]3(C)CC[C@H]4[C@H](C)CC[C@@H]1[C@@]24OO3 | Y
C[C@H]1[C@@H](OCCOc2ccc(/C=C/C(=O)c3ccccc3Cl)cc2)O[C@@H]2O[C@@]3(C)CC[C@H]4[C@H](C)CC[C@@H]1[C@@]24OO3 | Y

Read the next record carefully.
Data request: Does inhibition of growth at 30 µM meet or surpass 50% for C[C@H]1[C@@H](OCCOc2ccc(/C=C/C(=O)c3ccc(OCCO[C@H]4O[C@@H]5O[C@@]6(C)CC[C@H]7[C@H](C)CC[C@@H]([C@H]4C)[C@@]57OO6)cc3)cc2)O[C@@H]2O[C@@]3(C)CC[C@H]4[C@H](C)CC[C@@H]1[C@@]24OO3 ?
Data returned: N
